Let's look at some sequences and their measured log2 fold change of degron read counts.
Target: T1, CRBN, Q96SW2;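 note: pooled lentiviral library of zinc finger degron-EGFP fusions in mCherry-positive Jurkat cells, FACS-sorted after compound exposure, with degron abundance counted by next-generation sequencing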
T1 chain: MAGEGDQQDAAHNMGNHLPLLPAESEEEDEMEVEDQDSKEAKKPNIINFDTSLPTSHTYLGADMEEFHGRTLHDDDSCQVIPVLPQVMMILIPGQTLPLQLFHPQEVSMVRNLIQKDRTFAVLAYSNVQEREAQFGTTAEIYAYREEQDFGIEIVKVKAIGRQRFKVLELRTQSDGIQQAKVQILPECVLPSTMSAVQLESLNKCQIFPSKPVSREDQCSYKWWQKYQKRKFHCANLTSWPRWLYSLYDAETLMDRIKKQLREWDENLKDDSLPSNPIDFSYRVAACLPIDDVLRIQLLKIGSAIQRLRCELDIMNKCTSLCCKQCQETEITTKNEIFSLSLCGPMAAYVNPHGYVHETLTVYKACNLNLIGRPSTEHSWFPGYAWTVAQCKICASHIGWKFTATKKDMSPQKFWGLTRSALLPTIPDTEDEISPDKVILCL
Test: log2 fold change of degron read counts, EGFP-low vs EGFP+ sorted cells (limma voom), compound-induced degradation; higher = more compound-induced degradation of the degron-EGFP fusion; degrons are variants of IKZF1/3 zinc finger 2; compound dose not given here
Settings: Jurkat; 18 h; compound: thalidomide
The full ranking holds about 8,300 sequences; the median of “log2 fold change of degron read counts, EGFP-low vs EGFP+ sorted cells (limma voom), compound-induced degradation” is about -1.1, and the highest 2% start at about 3.2. For the sample, the highest values were picked, then their nearest neighbours and some sequences at random.
The answer should be a number; do not append a unit.

{"Chain": "LACEICGFHCTQKGNLLRHIKL [46L_47A_49E_50I_52G_53F_54H_55C_67L_, Q9UKT9]", "log2 fold change of degron read counts": -0.0575}

Reported log2 fold change of degron read counts, sequence FWCNQCGRTFTQKGNLLRHIKL [46F_47W_49N_50Q_52G_53R_54T_55F_67L_, Q9UKT9] : ____
-1.45

Reported log2 fold change of degron read counts, sequence LICEICGFHCTQKGNLLRHIKL [46L_47I_49E_50I_52G_53F_54H_55C_67L_, Q9UKT9] : ____
1.6

Reported log2 fold change of degron read counts, sequence FICPVCGATFTQKGNLLRHIKL [46F_47I_49P_50V_52G_53A_54T_55F_67L_, Q9UKT9] : ____
1.83

Reported log2 fold change of degron read counts, sequence LYCEICGFHCTQKGNLLRHIKL [46L_47Y_49E_50I_52G_53F_54H_55C_67L_, Q9UKT9] : ____
1.66

Reported log2 fold change of degron read counts, sequence LRCNQCGFFCTQKGNLLRHIKL [46L_47R_49N_50Q_52G_53F_54F_55C_67L_, Q9UKT9] : ____
-0.846

Reported log2 fold change of degron read counts, sequence LCCEICGFHCTQKGNLLRHIKL [46L_47C_49E_50I_52G_53F_54H_55C_67L_, Q9UKT9] : ____
0.845
